// data source = ChEMBL document CHEMBL1773048

Hi there, I'd appreciate the recorded Ratio IC50 for every entry that follows.
Experiment: Ratio of methyl alpha-D-mannoside IC50 to compound IC50 for binding affinity to Concanavalin A per carbohydrate moiety
Number, no unit, nothing else.

According to the records, this compound NC(=O)[C@H](CCCCNC(=O)[C@H](Cc1ccc(O)cc1)NC(=O)CCS[C@H]1O[C@H](CO)[C@@H](O)[C@H](O)[C@@H]1O)NC(=O)[C@H](Cc1ccc(O)cc1)NC(=O)CCS[C@@H]1O[C@@H](CO)[C@H](O)[C@@H](O)[C@H]1O displays Ratio IC50 of 4.4

The compound listed as O=[N+]([O-])c1ccc(O[C@H]2O[C@H](CO)[C@@H](O)[C@H](O)[C@@H]2O)cc1 shows Ratio IC50 equal to 2.1

Reported Ratio IC50 ( N=C(N)NCCC[C@H](NC(=O)[C@H](CCCCNC(=O)[C@H](Cc1ccc(O)cc1)NC(=O)CCS[C@@H]1O[C@@H](CO)[C@H](O)[C@@H](O)[C@H]1O)NC(=O)[C@H](Cc1ccc(O)cc1)NC(=O)CCS[C@H]1O[C@H](CO)[C@@H](O)[C@H](O)[C@@H]1O)C(=O)NCCCC[C@H](NC(=O)[C@H](CCCNC(=N)N)NC(=O)[C@H](CCCCNC(=O)[C@H](Cc1ccc(O)cc1)NC(=O)CCS[C@H]1O[C@H](CO)[C@@H](O)[C@H](O)[C@@H]1O)NC(=O)[C@H](Cc1ccc(O)cc1)NC(=O)CCS[C@H]1O[C@H](CO)[C@@H](O)[C@H](O)[C@@H]1O)C(N)=O ) = 3.6

###

Experiment: Displacement of yeast mannan from Concanavalin A by Enzyme-linked lectin assay
Experimental Readout: pIC50
The read-out pIC50 is expressed as -log10 of concentration in moles per litre.

The value of pIC50 measured for the molecule O=[N+]([O-])c1ccc(O[C@H]2O[C@H](CO)[C@@H](O)[C@H](O)[C@@H]2O)cc1 turned out to be 3.19

###

For each entry below, report its Ratio IC50 value.
Experiment: Ratio of methyl alpha-D-mannoside IC50 to compound IC50 for binding affinity to Concanavalin A per carbohydrate moiety
Please reply with the value in numeric form only.

The molecule listed as NC(=O)[C@H](CSSC[C@H](NC(=O)[C@H](CCCCNC(=O)[C@H](Cc1ccc(O)cc1)NC(=O)CCS[C@H]1O[C@H](CO)[C@@H](O)[C@H](O)[C@@H]1O)NC(=O)[C@H](Cc1ccc(O)cc1)NC(=O)CCS[C@@H]1O[C@@H](CO)[C@H](O)[C@@H](O)[C@H]1O)C(N)=O)NC(=O)[C@H](CCCCNC(=O)[C@H](Cc1ccc(O)cc1)NC(=O)CCS[C@H]1O[C@H](CO)[C@@H](O)[C@H](O)[C@@H]1O)NC(=O)[C@H](Cc1ccc(O)cc1)NC(=O)CCS[C@@H]1O[C@@H](CO)[C@H](O)[C@@H](O)[C@H]1O has a reported Ratio IC50 of 6.4

For CO[C@H]1O[C@H](CO)[C@@H](O)[C@H](O)[C@@H]1O the molecule record lists Ratio IC50 as 1

###

Experiment: Ratio of methyl alpha-D-mannoside IC50 to compound IC50 for binding affinity to Concanavalin A per carbohydrate moiety
Experimental Readout: Ratio IC50
Output: the number by itself.

GET /value?item= NC(=O)[C@H](CO)NC(=O)[C@H](CCCCNC(=O)[C@H](CCCCNC(=O)[C@H](Cc1ccc(O)cc1)NC(=O)CCS[C@H]1O[C@H](CO)[C@@H](O)[C@H](O)[C@@H]1O)NC(=O)[C@H](Cc1ccc(O)cc1)NC(=O)CCS[C@@H]1O[C@@H](CO)[C@H](O)[C@@H](O)[C@H]1O)NC(=O)[C@H](CCCCNC(=O)[C@H](Cc1ccc(O)cc1)NC(=O)CCS[C@H]1O[C@H](CO)[C@@H](O)[C@H](O)[C@@H]1O)NC(=O)[C@H](Cc1ccc(O)cc1)NC(=O)CCS[C@@H]1O[C@@H](CO)[C@H](O)[C@@H](O)[C@H]1O &field=Ratio IC50 returns 6

###

Experiment: Displacement of yeast mannan from Concanavalin A by Enzyme-linked lectin assay
Could you please report measured pIC50 for the items listed next?
Please note pIC50 is a logarithmic value: minus log10 of concentration in mol/L. Answer with that number alone.

get_value(item= NC(=O)[C@H](CCCCNC(=O)[C@H](CCC(=O)O)NC(=O)[C@H](CCCCNC(=O)[C@H](Cc1ccc(O)cc1)NC(=O)CCS[C@@H]1O[C@@H](CO)[C@H](O)[C@@H](O)[C@H]1O)NC(=O)[C@H](Cc1ccc(O)cc1)NC(=O)CCS[C@H]1O[C@H](CO)[C@@H](O)[C@H](O)[C@@H]1O)NC(=O)[C@H](CCC(=O)O)NC(=O)[C@H](CCCCNC(=O)[C@H](Cc1ccc(O)cc1)NC(=O)CCS[C@H]1O[C@H](CO)[C@@H](O)[C@H](O)[C@@H]1O)NC(=O)[C@H](Cc1ccc(O)cc1)NC(=O)CCS[C@H]1O[C@H](CO)[C@@H](O)[C@H](O)[C@@H]1O , readout=pIC50) returns 4.22

So, CO[C@H]1O[C@H](CO)[C@@H](O)[C@H](O)[C@@H]1O ? Its pIC50 was 2.88

In plain terms, NC(=O)[C@H](CCCCNC(=O)[C@H](CO)NC(=O)[C@H](CCCCNC(=O)[C@H](Cc1ccc(O)cc1)NC(=O)CCS[C@@H]1O[C@@H](CO)[C@H](O)[C@@H](O)[C@H]1O)NC(=O)[C@H](Cc1ccc(O)cc1)NC(=O)CCS[C@H]1O[C@H](CO)[C@@H](O)[C@H](O)[C@@H]1O)NC(=O)[C@H](CO)NC(=O)[C@H](CCCCNC(=O)[C@H](Cc1ccc(O)cc1)NC(=O)CCS[C@H]1O[C@H](CO)[C@@H](O)[C@H](O)[C@@H]1O)NC(=O)[C@H](Cc1ccc(O)cc1)NC(=O)CCS[C@H]1O[C@H](CO)[C@@H](O)[C@H](O)[C@@H]1O has a documented pIC50 of 4.19

Looking up NC(=O)[C@H](CCCCNC(=O)[C@H](Cc1ccc(O)cc1)NC(=O)CCS[C@H]1O[C@H](CO)[C@@H](O)[C@H](O)[C@@H]1O)NC(=O)[C@H](Cc1ccc(O)cc1)NC(=O)CCS[C@@H]1O[C@@H](CO)[C@H](O)[C@@H](O)[C@H]1O , I see its pIC50 listed as 3.82

Sample OC[C@H]1OC(O)[C@@H](O)[C@@H](O)[C@@H]1O (stereo partly drawn) [D-MANNOSE] ; pIC50 observed: 1.98

According to the records, this molecule NC(=O)[C@H](CSSC[C@H](NC(=O)[C@H](CCCCNC(=O)[C@H](Cc1ccc(O)cc1)NC(=O)CCS[C@H]1O[C@H](CO)[C@@H](O)[C@H](O)[C@@H]1O)NC(=O)[C@H](Cc1ccc(O)cc1)NC(=O)CCS[C@@H]1O[C@@H](CO)[C@H](O)[C@@H](O)[C@H]1O)C(N)=O)NC(=O)[C@H](CCCCNC(=O)[C@H](Cc1ccc(O)cc1)NC(=O)CCS[C@H]1O[C@H](CO)[C@@H](O)[C@H](O)[C@@H]1O)NC(=O)[C@H](Cc1ccc(O)cc1)NC(=O)CCS[C@@H]1O[C@@H](CO)[C@H](O)[C@@H](O)[C@H]1O displays pIC50 of 4.28

###

Experiment: Ratio of methyl alpha-D-mannoside IC50 to compound IC50 for binding affinity to Concanavalin A per carbohydrate moiety
Experimental Readout: Ratio IC50
Just the number.

Record summary for NC(=O)[C@H](CCCCNC(=O)[C@H](CCC(=O)O)NC(=O)[C@H](CCCCNC(=O)[C@H](Cc1ccc(O)cc1)NC(=O)CCS[C@@H]1O[C@@H](CO)[C@H](O)[C@@H](O)[C@H]1O)NC(=O)[C@H](Cc1ccc(O)cc1)NC(=O)CCS[C@H]1O[C@H](CO)[C@@H](O)[C@H](O)[C@@H]1O)NC(=O)[C@H](CCC(=O)O)NC(=O)[C@H](CCCCNC(=O)[C@H](Cc1ccc(O)cc1)NC(=O)CCS[C@H]1O[C@H](CO)[C@@H](O)[C@H](O)[C@@H]1O)NC(=O)[C@H](Cc1ccc(O)cc1)NC(=O)CCS[C@H]1O[C@H](CO)[C@@H](O)[C@H](O)[C@@H]1O : reported Ratio IC50 = 5.5

Ratio IC50 reading for NC(=O)[C@H](CCCCNC(=O)[C@H](CCCCNC(=O)[C@H](Cc1ccc(O)cc1)NC(=O)CCS[C@H]1O[C@H](CO)[C@@H](O)[C@H](O)[C@@H]1O)NC(=O)[C@H](Cc1ccc(O)cc1)NC(=O)CCS[C@@H]1O[C@@H](CO)[C@H](O)[C@@H](O)[C@H]1O)NC(=O)[C@H](CCCCNC(=O)[C@H](Cc1ccc(O)cc1)NC(=O)CCS[C@H]1O[C@H](CO)[C@@H](O)[C@H](O)[C@@H]1O)NC(=O)[C@H](Cc1ccc(O)cc1)NC(=O)CCS[C@@H]1O[C@@H](CO)[C@H](O)[C@@H](O)[C@H]1O : 6.4

Documented Ratio IC50 of NC(=O)[C@H](CCC(=O)O)NC(=O)[C@H](CCCCNC(=O)[C@H](CCCCNC(=O)[C@H](Cc1ccc(O)cc1)NC(=O)CCS[C@H]1O[C@H](CO)[C@@H](O)[C@H](O)[C@@H]1O)NC(=O)[C@H](Cc1ccc(O)cc1)NC(=O)CCS[C@@H]1O[C@@H](CO)[C@H](O)[C@@H](O)[C@H]1O)NC(=O)[C@H](CCCCNC(=O)[C@H](Cc1ccc(O)cc1)NC(=O)CCS[C@H]1O[C@H](CO)[C@@H](O)[C@H](O)[C@@H]1O)NC(=O)[C@H](Cc1ccc(O)cc1)NC(=O)CCS[C@@H]1O[C@@H](CO)[C@H](O)[C@@H](O)[C@H]1O : 3.6

// field: Ratio IC50; key: OC[C@H]1OC(O)[C@@H](O)[C@@H](O)[C@@H]1O (stereo partly drawn) [D-MANNOSE] ; value = 0.13
